Target: TLR10 (Homo sapiens, UniProt Q9BXR5)
Sequence (Q9BXR5 20-576): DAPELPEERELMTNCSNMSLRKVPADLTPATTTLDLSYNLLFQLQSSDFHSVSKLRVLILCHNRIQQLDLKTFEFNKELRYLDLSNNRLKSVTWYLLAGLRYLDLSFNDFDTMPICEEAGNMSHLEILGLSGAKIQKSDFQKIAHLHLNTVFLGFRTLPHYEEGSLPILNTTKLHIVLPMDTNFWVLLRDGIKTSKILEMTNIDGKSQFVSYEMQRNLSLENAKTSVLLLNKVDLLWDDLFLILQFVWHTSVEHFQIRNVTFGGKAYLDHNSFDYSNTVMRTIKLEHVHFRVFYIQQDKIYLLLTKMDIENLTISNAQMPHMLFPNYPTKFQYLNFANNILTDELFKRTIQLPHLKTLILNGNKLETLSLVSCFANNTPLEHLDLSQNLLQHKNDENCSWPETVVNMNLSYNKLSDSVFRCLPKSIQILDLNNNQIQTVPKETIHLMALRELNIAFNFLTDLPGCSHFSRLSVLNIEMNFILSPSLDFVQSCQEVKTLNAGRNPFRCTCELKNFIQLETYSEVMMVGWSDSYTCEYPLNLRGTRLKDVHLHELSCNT
Test: mRNA display affinity selection against TLR10, NGS abundance
Type: binding
Parameters: Chimera protein (extracellular domain, amino acid 20-576;); Fc (chimera); purchased R&D system #6619-TR-050
Details: TLR10 selection pulldown (+); Top100 selection hits, NGS
Define the label as yes when Library fraction is strictly less than 0.0007 and as no in all remaining cases.

MACROMOLECULE SEQUENCE	TARGET SYSTEM	ANSWER LABEL
TIYFKLQKAVAL	TLR10 (Homo sapiens, UniProt Q9BXR5)	yes
RNPYSGNIAI	TLR10 (Homo sapiens, UniProt Q9BXR5)	no
TIRFTNQNKIAF	TLR10 (Homo sapiens, UniProt Q9BXR5)	no
IGRVMIKSS	TLR10 (Homo sapiens, UniProt Q9BXR5)	no
IGSVFIKSS	TLR10 (Homo sapiens, UniProt Q9BXR5)	no
CMIFHTQLKIAF	TLR10 (Homo sapiens, UniProt Q9BXR5)	yes
GTGLNRYGGINY	TLR10 (Homo sapiens, UniProt Q9BXR5)	no
SVPFPLQRKLVF	TLR10 (Homo sapiens, UniProt Q9BXR5)	no
SRTNRFGGHMAS	TLR10 (Homo sapiens, UniProt Q9BXR5)	no
TLHFRRQNKIAY	TLR10 (Homo sapiens, UniProt Q9BXR5)	no
IGNTYVASS	TLR10 (Homo sapiens, UniProt Q9BXR5)	yes
VQLHRWGLRM	TLR10 (Homo sapiens, UniProt Q9BXR5)	yes
IGNVCVVSS	TLR10 (Homo sapiens, UniProt Q9BXR5)	no
GYAVGKLLIRV	TLR10 (Homo sapiens, UniProt Q9BXR5)	yes
TMHFSNQRKLVF	TLR10 (Homo sapiens, UniProt Q9BXR5)	yes
CNPYRGNIGW	TLR10 (Homo sapiens, UniProt Q9BXR5)	no
RMSLNTRYIAF	TLR10 (Homo sapiens, UniProt Q9BXR5)	yes

----------
Target: IRAK4 (Homo sapiens)
Sequence (Q9NWZ3 1-460): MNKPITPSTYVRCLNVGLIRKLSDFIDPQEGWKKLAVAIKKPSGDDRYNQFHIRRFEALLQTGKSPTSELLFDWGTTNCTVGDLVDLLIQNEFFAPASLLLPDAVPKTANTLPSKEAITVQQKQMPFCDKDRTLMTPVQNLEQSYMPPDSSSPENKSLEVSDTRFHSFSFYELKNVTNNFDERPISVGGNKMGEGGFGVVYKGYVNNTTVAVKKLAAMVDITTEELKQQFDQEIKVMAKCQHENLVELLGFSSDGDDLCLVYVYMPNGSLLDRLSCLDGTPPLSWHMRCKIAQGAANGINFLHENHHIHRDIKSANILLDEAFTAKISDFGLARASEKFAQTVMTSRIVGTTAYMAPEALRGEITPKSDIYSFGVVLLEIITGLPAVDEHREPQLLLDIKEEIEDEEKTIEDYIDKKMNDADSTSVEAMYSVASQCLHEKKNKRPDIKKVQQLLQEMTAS
Assay: mRNA display affinity selection against IRAK4, NGS abundance
Type: binding
Design: acids 1-460; NP_057207.2) was purchased from Carna Biosciences; purchased Carna Biosciences (Kobe, Japan)
Settings: IRAK4 selection pulldown (-); Top100 selection hits, NGS
ATTRIBUTE MEASURED: Library fraction

MACROMOLECULE SEQUENCE	MEAS VALUE
SMKRQFITRHWT	7e-5
SMLFKRRIYK	0.165
RLCWKRRNWT	0.00044
TLCWRRRNYK	0.011
SMKRQFITWHWT	0.376
AMLWKRRLWR	0.00051
SQRYKRRNYK	0.00037
SQLYKRRIYQ	0.00027
SQRYRNRNYQ	0.00064
RTFWRRRRYH	0.00039
GPVIYNRRIYC	0.00021
SVLWKKRVWQ	0.00139
SMERQFITWHWT	0.00013
STLWNKKIYK	0.00019
SLLWKRRVYT	0.0001
SMLWKRKIWG	0.00177
SIMWKRRVFK	8e-5
GPILYNRRLFV	0.00014
TLCWKRRTWK	0.018
SQRWRNRNYR	0.010
